tested on: MDA-MB-231; assay: Cytotoxicity against human MDA-MB-231 cells assessed as reduction in cell viability incubated for 24 hrs by MTT assay; type: functional, cell-based; conditions: MDA-MB-231, 24 h
recordedEndpoint: pIC50
Quick note: pIC50 means taking -log10 of the concentration in moles per liter.

- CC(C)=CC1=C(OCc2cn(CC3=C(C)C(=O)c4ccccc4C3=O)nn2)C(=O)c2ccccc2C1=O: 4.95

Recall the recorded pIC50 for CC(C)=CC1=C(OCc2cn(C(C)C3=C(C)C(=O)c4ccccc4C3=O)nn2)C(=O)c2ccccc2C1=O (configuration not stated) with MDA-MB-231 and state it.
5.04

====

Readings of pIC50 for the listed compounds
system: MCF7; test: Cytotoxicity against human MCF7 cells assessed as reduction in cell viability incubated for 24 hrs by MTT assay; format: functional, cell-based; conditions: MCF7, 24 h
Quick note: pIC50 means taking -log10 of the concentration in moles per liter.

Use these answered entries as a reference point.
- CCc1ccc(-n2cc(CCNC3=C(C)C(=O)c4ccccc4C3=O)nn2)cc1: 5.06
- CC(C)=CC1=C(OCc2cn(C(C)C3=C(C)C(=O)c4ccccc4C3=O)nn2)C(=O)c2ccccc2C1=O (stereo not given): 5.37
- O=C1C=C(NCc2cn(-c3ccc(C(F)(F)F)cc3)nn2)C(=O)c2ccccc21: 4.98
- CC(C)(C)c1ccc(-n2cc(CNC3=CC(=O)c4ccccc4C3=O)nn2)cc1: 4.67

Give the measured pIC50 of "CC(C)=CC1=C(OCc2cn(CC3=C(C)C(=O)c4ccccc4C3=O)nn2)C(=O)c2ccccc2C1=O" .
5.36
